Catalogue of binders with associated Kd
assayed.target: T1, Activin B (UniProt P09529 293-407)
T1 sequence (looked up): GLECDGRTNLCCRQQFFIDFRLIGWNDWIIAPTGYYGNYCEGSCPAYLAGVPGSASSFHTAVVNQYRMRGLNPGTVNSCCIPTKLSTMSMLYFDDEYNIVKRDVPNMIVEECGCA
assay.method.text: SPR (Biacore 3000), receptor captured on chip, ligand in solution
attribute.measured: Kd (pM)

* ActRIIa/bΔ9 min variant (SEQ ID NO: 6) (receptor, Engineered extracellular ActRIIa variant; not shown: Fusion partner and its linker) GAILGRSETQECLFYNANWELDRTNQTGVEPCEGEKDKRLHCFATWKNISGSIEIVKKGCWLDDINCYDRTDCVETKENPQVYFCCCEGNMCNEKFSYFPEMEVTQPTS | 88
* ActRIIa/bmax3 variant (SEQ ID NO: 72) (receptor, not shown: Carrier and linker) GAILGRSETQECLFYNANWELERTNQTGVERCEGEKDKRLHCYATWRNISGSIEIVKKGCWLDDFNCYDRTDCVETEENPQVYFCCCEGNMCNEKFSYFPEMEVTQPTSNPVTPK | 43
* ActRIIa/bΔ9 variant (SEQ ID NO: 58) (receptor, Engineered extracellular ActRIIa variant; not shown: Fusion partner and its linker) GAILGRSETQECLFYNANWELDRTNQTGVERCEGEKDKRLHCYATWRNISGSIEIVKKGCWLDDFNCYDRTDCVETKENPQVYFCCCEGNMCNEKFSYFPEMEVTQPTS | 12.3
